B1: CPEB3 Ribozyme (parent)
chain: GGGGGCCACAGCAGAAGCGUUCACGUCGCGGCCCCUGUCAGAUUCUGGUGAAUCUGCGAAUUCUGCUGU

Variants of: B1
Assay: self-cleavage, relative activity (ratio to wild type); higher = more cleavage; co-transcriptional
METRIC: self-cleavage
Just the number, please.

Solved cases below.
| VARIANT CODE | self-cleavage |
| --- | --- |
| G48A G68A | 1.01 |
| A16G C32G | 0.125 |
| G3A U36A | 0.0867 |
| C6G C66G | 0.311 |
| C29G C54U | 0.545 |
| G37A U61G | 0.221 |
| C12A U36A | 0.194 |
| C29A U55G | 0.323 |

What does the data say about its self-cleavage? Entry: U44G U62G
0.777

Could you share which self-cleavage value was measured for G4C G19C ?
0.104

Quick one: self-cleavage for G3A U67A ?
0.778
